Data origin, for the record: the RNAGym collection of RNA variant scans (doi:10.7554/elife.80360)

B1: HDV Ribozyme (parent)
chain: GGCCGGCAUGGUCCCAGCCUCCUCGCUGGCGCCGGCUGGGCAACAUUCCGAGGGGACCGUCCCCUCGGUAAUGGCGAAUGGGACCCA

- Variants of: B1
- test-summary: self-cleavage, relative activity (ratio to wild type); higher = more cleavage; co-transcriptional
assay-readout: self-cleavage
One number for each entry.

Known self-cleavage results, listed for orientation:
{"mutation-code": "C15U A43G", "self-cleavage": 0.138}
{"mutation-code": "G38U C41G", "self-cleavage": 0.325}
{"mutation-code": "U12A A42U", "self-cleavage": 0.119}

Items follow; give self-cleavage for each.
1. C4U C13A
2. C49G G67C

Reply:
0.122
1.22

Count: 4. Required value per item: self-cleavage.
1. G34C G39A
2. C41A G59C
3. C44U U65G
4. C44A G59A

Reply:
1. 0.0536
2. 0.911
3. 0.812
4. 0.762

Each of the following entries comes with a recorded value; kindly state self-cleavage for each.
1. C19A G54U
2. G1A G53C
3. C36A G68C
4. U9G G82C
5. C4A C13A
6. G52U A78G

Reply:
0.201
0
0.235
0.646
0.0282
0.514

// each variant listed below needs its self-cleavage
1. G73A C75G
2. A8U G29C

Reply:
1. 0.19
2. 0.0554
